# Test system: Escherichia coli
# PROTOCOL_NOTES: Inhibition of CTX-M2 in beta-lactam-resistant Escherichia coli TG1 transfected with pBGS18 plasmid encoding replication origin and kanamycin resistance assessed as potentiation of ampicillin-induced antibacterial activity by measuring fold reduction in ampicillin MIC at 16 ug/mL in Mueller-Hinton broth by CLSI protocol based method relative to ampicillin MIC alone
Recorded Ratio values for a group of molecules are listed next.

{"SMILES_STRUCTURE": "O=C(NC1CCNCC1)[C@@H]1CC[C@@H]2CN1C(=O)N2OS(=O)(=O)O", "TESTED_SYSTEM": "Escherichia coli", "Ratio": 64}
{"SMILES_STRUCTURE": "C[C@]1(COC(=O)Cc2ccc(O)c(O)c2)[C@H](C(=O)O)N2C(=O)/C(=C/c3cc(Br)ccn3)[C@H]2S1(=O)=O", "TESTED_SYSTEM": "Escherichia coli", "Ratio": 64}
{"SMILES_STRUCTURE": "Cn1cc(-c2ccnc(/C=C3/C(=O)N4[C@@H](C(=O)O)[C@](C)(COC(=O)Cc5ccc(O)c(O)c5)S(=O)(=O)[C@H]34)c2)cn1", "TESTED_SYSTEM": "Escherichia coli", "Ratio": 64}
{"SMILES_STRUCTURE": "C[C@]1(COC(=O)Cc2ccc(O)c(O)c2)[C@H](C(=O)O)N2C(=O)/C(=C/c3ccccn3)[C@H]2S1(=O)=O", "TESTED_SYSTEM": "Escherichia coli", "Ratio": 64}

----------
Recorded MIC values for a group of compounds are listed next.
# TESTED_SYSTEM: Beta-lactamase OXA-23 (Acinetobacter baumannii) (UniProt Q9L4P2)
# PROTOCOL_NOTES: Inhibition of OXA-23 in carbapenem-resistant Acinetobacter baumannii ATCC 17978 transfected with pET-RA-KmR plasmid encoding rifampicin and kanamycin resistance assessed as potentiation of imipenem-induced antibacterial activity by measuring imipenem MIC at 16 ug/mL in Mueller-Hinton broth by CLSI protocol based method (reference value: 8 ug/mL)
REPORTED_METRIC: MIC (µg/mL)

{"COMPOUND": "C[C@]1(COC(=O)Cc2ccc(O)c(O)c2)[C@H](C(=O)O)N2C(=O)/C(=C/c3nccc4ccsc34)[C@H]2S1(=O)=O", "ENDPOINT_VALUE": 2}
{"COMPOUND": "C[C@]1(COC(=O)Cc2ccc(O)c(O)c2)[C@H](C(=O)O)N2C(=O)/C(=C/c3ccccn3)[C@H]2S1(=O)=O", "ENDPOINT_VALUE": 0.5}
{"COMPOUND": "C[C@]1(COC(=O)Cc2ccc(O)c(O)c2)[C@H](C(=O)O)N2C(=O)/C(=C/c3cc(Br)ccn3)[C@H]2S1(=O)=O", "ENDPOINT_VALUE": 1}
{"COMPOUND": "NC(=O)[C@@H]1CC[C@@H]2CN1C(=O)N2OS(=O)(=O)[O-].[Na+] [AVIBACTAM SODIUM]", "ENDPOINT_VALUE": 4}
{"COMPOUND": "COc1ccnc(/C=C2/C(=O)N3[C@@H](C(=O)O)[C@](C)(COC(=O)Cc4ccc(O)c(O)c4)S(=O)(=O)[C@H]23)c1OC", "ENDPOINT_VALUE": 4}
{"COMPOUND": "Cn1cc(-c2ccnc(/C=C3/C(=O)N4[C@@H](C(=O)O)[C@](C)(COC(=O)Cc5ccc(O)c(O)c5)S(=O)(=O)[C@H]34)c2)cn1", "ENDPOINT_VALUE": 1}
{"COMPOUND": "C[C@]1(COC(=O)Cc2ccc(O)c(O)c2)[C@H](C(=O)O)N2C(=O)/C(=C/c3ccc(F)cn3)[C@H]2S1(=O)=O", "ENDPOINT_VALUE": 1}
{"COMPOUND": "C[C@]1(COC(=O)Cc2ccc(O)c(O)c2)[C@H](C(=O)O)N2C(=O)/C(=C/c3cc4ccccc4cn3)[C@H]2S1(=O)=O", "ENDPOINT_VALUE": 2}
{"COMPOUND": "O=C(NC1CCNCC1)[C@@H]1CC[C@@H]2CN1C(=O)N2OS(=O)(=O)O", "ENDPOINT_VALUE": 8}
